The origin of these recorded values is PubChem BioAssay (Tox21).

- PROTOCOL_SUMMARY: qHTS assay to identify small molecule agonists of the androgen receptor (AR) signaling pathway in the presence of an antagonist - cell viability counter screen (AID 1259379); note: nearly all actives have a fitted effect of over 25% in size
- STUDY_CONDITIONS: MDA-kb2 viability, CellTiter-Fluor, 16 h; series mostly up to 92.4 µM
Results filed as inconclusive are left out. The source made the active and inactive calls. Calls come from the whole dose curve; as a rule, active = well fitted cell-killing curve with a large enough effect in the repeat runs; inconclusive = weak or mixed curves, or effect the other way; inactive = flat fitted curve, though single readings scatter.
Your response should consist of one outcome taken from 1 for active, 0 for inactive

Here are 8 compounds together with their reported answers.
COMPOUND: CCCCCCOC(=O)CCC
CATEGORY_LABEL: 0

COMPOUND: CCOC(=O)C1=C(C)NC(C)=C(C(=O)OC)C1c1cccc([N+](=O)[O-])c1 (configuration not stated)
CATEGORY_LABEL: 0

COMPOUND: CC/C(=C\C(=N/O)C(N)=O)C(C)[N+](=O)[O-] (configuration not stated)
CATEGORY_LABEL: 0

COMPOUND: CCN(CC)CCOC(=O)C1(c2ccccc2)CCCC1
CATEGORY_LABEL: 0

COMPOUND: CN1CCC(=C2c3ccccc3C=Cc3ccccc32)CC1
CATEGORY_LABEL: 0

COMPOUND: CCCCCCCCCCCCC(=O)O
CATEGORY_LABEL: 0

COMPOUND: CCCCCC(CO)CCC (configuration not stated)
CATEGORY_LABEL: 0

COMPOUND: CCN(CC)CCNC(C(=O)OCCC(C)C)c1ccccc1 (configuration not stated)
CATEGORY_LABEL: 0

Input: Which outcome did this test record for the compound N[C@H]1C(O)O[C@H](CO)[C@H](O)[C@@H]1O (some centres not stated) ?
Output: 0

Input: Which outcome did this test record for the compound Cc1cccc(OCCOc2cccc(C)c2)c1 ?
Output: 0

Input: Which outcome did this test record for the compound CC(C)(Oc1ccc(Cl)cc1)C(=O)OCCCOC(=O)C(C)(C)Oc1ccc(Cl)cc1 ?
Output: 0

Input: Which outcome did this test record for the compound CN(C)CCCOc1nn(Cc2ccccc2)c2ccccc12 ?
Output: 0

Input: Which outcome did this test record for the compound COc1ccc(C(C)=O)cc1 ?
Output: 0

Input: Which outcome did this test record for the compound CC(C)(C)c1ccc(S)cc1 ?
Output: 0

Input: Which outcome did this test record for the compound CCCc1ccccc1 ?
Output: 0

Input: Which outcome did this test record for the compound CCCCOCCOCCOCCOCCO ?
Output: 0

Input: Which outcome did this test record for the compound O=C1[C@H](CC[C@H](O)c2ccc(F)cc2)[C@@H](c2ccc(O)cc2)N1c1ccc(F)cc1 ?
Output: 0

Input: Which outcome did this test record for the compound CC[C@H](C)[C@H](N)C(=O)O ?
Output: 0

Input: Which outcome did this test record for the compound CC(C)c1ccc2c(C(C)C)cc(C(C)C)c(S(=O)(=O)O)c2c1 ?
Output: 0

Input: Which outcome did this test record for the compound OCCC1CCCCN1 (configuration not stated) ?
Output: 0

Input: Which outcome did this test record for the compound CC(=O)O[C@@H]1C(=O)O[C@@H]2[C@H]1OC(=O)[C@@H]2OC(C)=O ?
Output: 0

Input: Which outcome did this test record for the compound CCOc1nc2cccc(C(=O)O)c2n1Cc1ccc(-c2ccccc2-c2nn[nH]n2)cc1 ?
Output: 0

Input: Which outcome did this test record for the compound OC(CCN1CCCCC1)(c1ccccc1)C1CCCCC1 (configuration not stated) ?
Output: 0

Input: Which outcome did this test record for the compound CC(C)NCC(O)COc1ccc(CC(N)=O)cc1 (configuration not stated) ?
Output: 0

Input: Which outcome did this test record for the compound CN(C)CCCNCCCN ?
Output: 0

Input: Which outcome did this test record for the compound COCCCCCCCCOCCC[Si](C)(O[Si](C)(C)C)O[Si](C)(C)C ?
Output: 1

Input: Which outcome did this test record for the compound CC(=O)SCc1ccco1 ?
Output: 0
